system: DU-145 prostate; experiment: NCI tumour cell line growth inhibition, 48 h
What TGI was measured for each of the following?

*Q* Indicate its recorded TGI; the compound in question is CC(NC(=O)c1c(O)[nH]c(=S)[nH]c1=O)c1ccc([N+](=O)[O-])cc1 (stereo unspecified)
*A* > 100 µM

*Q* Indicate its recorded TGI; the compound in question is CN1CCCOC(c2ccc(Cl)cc2)O1 (stereo unspecified)
*A* > 100 µM

*Q* Indicate its recorded TGI; the compound in question is `CCOC(=O)CCC1(CCC(=O)OCC)CCCCCCCCC(CCC(=O)OCC)(CCC(=O)OCC)C(=O)C1=O`
*A* > 100 µM

*Q* Indicate its recorded TGI; the compound in question is `Oc1ccc(Oc2cnc3ccccc3n2)cc1`
*A* > 100 µM

*Q* Indicate its recorded TGI; the compound in question is `Nc1c(C(=O)Nc2ccccc2Cl)sc2nc3c(cc12)C(=O)CCC3`
*A* > 100 µM

*Q* Indicate its recorded TGI; the compound in question is `CN1CC=C(c2c(N)nc(N)[nH]c2=O)CC1`
*A* > 100 µM

----------
system: LOX IMVI melanoma; assay: NCI tumour cell line growth inhibition, 48 h
measure name: TGI (µM)
Field format: number, assumed µM, no unit text.

*Q* Enter recorded TGI with LOX IMVI melanoma for `O=c1cc(NNc2cccc(Cl)c2)[nH]c(=O)[nH]1` here.
*A* 29.6

*Q* Enter recorded TGI with LOX IMVI melanoma for `COCCn1cnc2c(Cl)nc(Nc3ccccc3)nc21` here.
*A* 33.2

*Q* Enter recorded TGI with LOX IMVI melanoma for CC(=O)SC(C[N+](=O)[O-])c1ccc2c(c1)OCO2 (stereo not drawn) here.
*A* 4.35

*Q* Enter recorded TGI with LOX IMVI melanoma for `C=C(C)[C@@H]1CC[C@]2(C)[C@H](CC[C@@H]3[C@@H]([C@@](C)(O)CCC=C(C)C)CC[C@]32C)[C@@]1(C)CCC(=O)O` here.
*A* 31.8

*Q* Enter recorded TGI with LOX IMVI melanoma for NC(=O)CNc1ccc([As]=[As]c2ccc(NCC(N)=O)cc2)cc1 (stereo not drawn) here.
*A* 23.8

*Q* Enter recorded TGI with LOX IMVI melanoma for `C/C(=N\NC(=S)N1CCCC1)c1nc2ncccc2[nH]1` here.
*A* 13.1

*Q* Enter recorded TGI with LOX IMVI melanoma for CNC(C)[C@H]1CCC2C3CC=C4C(=O)[C@@H](NC(=O)C=C(C)C)CC[C@]4(C)C3CC[C@@]21C (stereo partly drawn) here.
*A* 2.98

*Q* Enter recorded TGI with LOX IMVI melanoma for O=C1c2ccccc2OCC12OC21C=CC(Cl)=CC1 (stereo not drawn) here.
*A* 30.4

*Q* Enter recorded TGI with LOX IMVI melanoma for `O=C1C=C(Nc2ccc(S(=O)(=O)Nc3nccs3)cc2)c2ccccc2C1=O` here.
*A* 48.6

*Q* Enter recorded TGI with LOX IMVI melanoma for `Cc1c2c(C(N)=O)nccc2c(C)c2c1c1ccccc1n2Cc1ccccc1` here.
*A* 19.7

*Q* Enter recorded TGI with LOX IMVI melanoma for `O=P1(Cc2ccccc2)N(Cc2ccccc2)[C@@H]2CCCC[C@H]2N1Cc1ccccc1` here.
*A* 26.1

----------
What TGI was measured for each of the following?
test system: NCI-H460 lung; test: NCI tumour cell line growth inhibition, 48 h

*Q* Indicate its recorded TGI; the molecule in question is `Cc1nc2ccc(S(=O)(=O)Nc3nccs3)cc2c(=O)n1NS(=O)(=O)c1nccs1`
*A* > 100 µM

*Q* Indicate its recorded TGI; the molecule in question is `Cc1noc2c1-c1ccccc1C(c1ccc(Cl)cc1)=N[C@H]2CC(N)=O`
*A* > 100 µM

*Q* Indicate its recorded TGI; the molecule in question is COc1ccc(C2COc3c(ccc(O)c3C)C2)cc1OC (stereo not given)
*A* > 193 µM

*Q* Indicate its recorded TGI; the molecule in question is NC(CCc1ncc(C(=O)O)s1)C(=O)O (stereo not given)
*A* > 100 µM

*Q* Indicate its recorded TGI; the molecule in question is CC1CC(Nc2ccc(Br)cc2)N(C(=O)c2ccc(Br)cc2)O1 (stereo not given)
*A* > 10 µM

*Q* Indicate its recorded TGI; the molecule in question is C[Si](C)(C)CN1C(=O)c2ccccc2C1(O)c1ccccc1 (stereo not given)
*A* > 100 µM

*Q* Indicate its recorded TGI; the molecule in question is `CCCO[C@@H]1[C@@H](OC(C)=O)[C@@H](OC(C)=O)C(C)(C)/C=C/[C@H](C)C(=O)[C@@]2(OC(C)=O)C[C@@](C)(OC(C)=O)[C@H](OC(C)=O)[C@@H]2[C@H]2OC(=O)CC[C@@]12OC(=O)c1ccccc1`
*A* > 25 µM

*Q* Indicate its recorded TGI; the molecule in question is `CCC(=O)OCN(C)c1nc(N(C)COC(=O)CC)nc(N(C)COC(=O)CC)n1`
*A* > 100 µM

*Q* Indicate its recorded TGI; the molecule in question is `COc1ccc(/C=N/N=C(\N)NO)c(OC)c1C`
*A* > 100 µM

*Q* Indicate its recorded TGI; the molecule in question is `c1ccc(NCCSc2nc3ccccc3s2)cc1`
*A* > 100 µM
